test: protein stability index of a GFP-peptide fusion (GPS, HEK-293T) (PSI 1-6); higher = more stable; conditions: treatment: DMSO; c terminus: native;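 note: 24-mer peptide tiles fused after GFP, lentivirally expressed, FACS-sorted into six equal bins by GFP/DsRed ratio, decoded by Illumina sequencing, PSI is the read-weighted mean bin number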
Kind request: treat 3 as inclusive, so protein stability index at 3 or higher is met, anything lower is not met.

{"columns": ["sequenceString", "labelValue"],
 "data": [
  ["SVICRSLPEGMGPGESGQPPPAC [ALKBH7]", "not met"],
  ["HITARIESDLTLESLSDEEIHPG [DRICH1]", "met"],
  ["RIHVRRHITHDERPHGQQIVFKD [KCTD13]", "met"],
  ["FPEALDELPLPPFLQPLDLTGKG [ANKRD9]", "met"],
  ["KTPVLLTDYPVDLDEIAYFTWAS [MYORG]", "not met"],
  ["SFGLRFGKREAAPGNHGRSAGRG [KISS1]", "met"],
  ["YIPSYTSWYPSAHQEAMQQPQLM [DLX1]", "not met"],
  ["HYKKAPIFTSEHGEKLYLVRALQ [NCK2]", "not met"]
]}

Query string: Given AQDLMDGLPPGDSNQLAWFDTDL [CTNNB1] , state whether its protein stability index is at least 3.
Result string: met

Query string: Given HIDAIILALPEDLQGILLKTGMT [DENND6A] , state whether its protein stability index is at least 3.
Result string: not met

Query string: Given SSISPGLHSFTDHQRLMKRRKSV [KCNK9] , state whether its protein stability index is at least 3.
Result string: met

Query string: Given VLALFVYVAWNEGSRQWREGKQD [VMA21] , state whether its protein stability index is at least 3.
Result string: not met

###

# protein stability index listing for each entry below
experiment: protein stability index of a GFP-peptide fusion (GPS, HEK-293T) (PSI 1-6); higher = more stable; settings: treatment: MLN4924 1 uM, 8 h; c terminus: a fixed tail appended
Give a plain numeric answer without units written out.

{"columns": ["sequenceString", "protein stability index"],
 "data": [
  ["NLLLAKGANINAFDKKDRRALHWA [ANKRD44]", 2.5],
  ["GSARYDFSHEILRDEESFFGERRI [ALKBH7]", 3.71],
  ["NPFQDPAVIQHRPSRQYATLDVYN [SCAMP3]", 3.62],
  ["SQYIAVEAAEGRNKNEVFYQCPDQ [FBXO3]", 4.74],
  ["SSPRGMVRVCDLLLKKKPPQQQHH [ANKRD17]", 3.28]
]}

Entry KKIQVNSKPSIQPKPLLLPAAPKT [ATF6] — recorded protein stability index = 4.22

Entry YGDWTSGENSDGCYEHFAELDIPQ [CLPTM1] — recorded protein stability index = 4.63

###

assay: protein stability index of a GFP-peptide fusion (GPS, HEK-293T) (PSI 1-6); higher = more stable; settings: treatment: DMSO; c terminus: a fixed tail appended
Kind request: treat 3 as inclusive, so protein stability index at 3 or higher is Yes, anything lower is No.

Field: example entries. Status: answers known.
{"columns": ["sequenceString", "labelValue"],
 "data": [
  ["NMEELTEVITAAEFHPHHCNTFVY [PPP2R2B]", "No"],
  ["GEDEENREHRVRRIHVRRHITHDE [KCTD13]", "Yes"],
  ["TLSKSEYMVIEEGGMNHSAFPQTP [KCNA3]", "Yes"],
  ["DDMLLFDEQEKGIVTKFYQLSATG [FAN1]", "Yes"],
  ["LHSKEIVYRDLKPENILLDRDGHI [PRKX]", "Yes"]
]}

Continue with the next sequence.
Query string: Given ADTTTGSAAGPPLSEDDKLQGAAS [EHMT1] , state whether its protein stability index is at least 3.
Result string: Yes
